Hey, just so you know, these numbers are from ChEMBL document CHEMBL5154929.

EXPERIMENT_NOTES: Cytotoxicity against human HEK293T cells measured after 72 hrs by MTT assay
Format: toxicity, cell-based, HEK-293T
Classification scheme (IC50 at 72 h): interval 1 = under 800 nM, interval 2 = from 800 nM up to 1000 nM, interval 3 = 1000 nM and over

See these solved cases before continuing.
>>> category_label("O=C1c2c[n+]([O-])c3ccccc3c2C(=O)c2c1c1ccccc1n2CCCN1CCC(O)CC1")
"interval 1"
>>> category_label("CCOC(=O)[C@@H]1OC(C)(C)O[C@H]1Cn1cc(Cn2c3c(c4ccccc42)C(=O)c2c[n+]([O-])c4ccccc4c2C3=O)nn1")
"interval 1"
>>> category_label("CC(=O)OC[C@@H]1OC(C)(C)O[C@H]1Cn1cc(Cn2c3c(c4ccccc42)C(=O)c2c[n+]([O-])c4ccccc4c2C3=O)nn1")
"interval 3"
>>> category_label("O=C1c2c[n+]([O-])c3ccccc3c2C(=O)c2c1c1ccccc1n2Cc1cn(CC(O)CO)nn1 (centres undefined)")
"interval 1"
>>> category_label("CC(=O)OC[C@H]1O[C@@H](n2cc(Cn3c4c(c5ccccc53)C(=O)c3c[n+]([O-])c5ccccc5c3C4=O)nn2)[C@H](OC(C)=O)[C@@H](OC(C)=O)[C@@H]1OC(C)=O")
"interval 3"

Query: Band for O=C1c2c[n+]([O-])c3ccccc3c2C(=O)c2c1c1ccccc1n2CCCN1CCOCC1 ?
Response: interval 1

Query: Band for O=C1c2c[n+]([O-])c3ccccc3c2C(=O)c2c1c1ccccc1n2Cc1cn([C@H]2O[C@H](CO)[C@@H](O)[C@H]2O)nn1 ?
Response: interval 3

Query: Band for O=C1c2c[n+]([O-])c3ccccc3c2C(=O)c2c1c1ccccc1n2Cc1cn([C@@H]2O[C@H](CO)[C@@H](O)[C@H](O)[C@H]2O)nn1 ?
Response: interval 2

Query: Band for O=C1c2c[n+]([O-])c3ccccc3c2C(=O)c2[nH]c3ccccc3c21 [CALOTHRIXIN A] ?
Response: interval 2

Query: Band for CC[C@@]1(O)C(=O)OCc2c1cc1n(c2=O)Cc2cc3ccccc3nc2-1 [CAMPTOTHECIN] ?
Response: interval 1
